Target: Recombinant DRB4 protein (DRA1/B4*01:01) (human) (UniProt P01903)
Assay: peptide binding competition assay
reported-property: IC50 (µM)
Return type: number; implicit unit µM.

Sample answers from the record:
{"binder": "ATHQDIDFLIEEIERLGQDL [GAD65 566–585 peptide]", "IC50, µM": 12}
{"binder": "IAPVFVLLEYVTLKKMREII [GAD65 209–228 peptide]", "IC50, µM": 21}
{"binder": "HVDVFKLWLMWRAKGTTGFE [GAD65 449–468 peptide]", "IC50, µM": 32}
{"binder": "DVMNILLQYVVKSFDRSTKV [GAD65 113–132 peptide]", "IC50, µM": 1.4}
{"binder": "PGGAISNMYAMMIARFKMFP [GAD65 241–260 peptide]", "IC50, µM": 0.6}

Input: Answer with the recorded IC50 for the binder listed here: KVNFFRMVISNPAATHQDID [GAD65 553–572 peptide]
Output: 7.8

Input: Answer with the recorded IC50 for the binder listed here: LRTLEDNEERMSRLSKVAPV [GAD65 513–532 peptide]
Output: 5.9
